Measured IC50, listed per entry.
Target: BSEP bile salt transporter (Homo sapiens, UniProt O95342)
Sequence (O95342 whole entry): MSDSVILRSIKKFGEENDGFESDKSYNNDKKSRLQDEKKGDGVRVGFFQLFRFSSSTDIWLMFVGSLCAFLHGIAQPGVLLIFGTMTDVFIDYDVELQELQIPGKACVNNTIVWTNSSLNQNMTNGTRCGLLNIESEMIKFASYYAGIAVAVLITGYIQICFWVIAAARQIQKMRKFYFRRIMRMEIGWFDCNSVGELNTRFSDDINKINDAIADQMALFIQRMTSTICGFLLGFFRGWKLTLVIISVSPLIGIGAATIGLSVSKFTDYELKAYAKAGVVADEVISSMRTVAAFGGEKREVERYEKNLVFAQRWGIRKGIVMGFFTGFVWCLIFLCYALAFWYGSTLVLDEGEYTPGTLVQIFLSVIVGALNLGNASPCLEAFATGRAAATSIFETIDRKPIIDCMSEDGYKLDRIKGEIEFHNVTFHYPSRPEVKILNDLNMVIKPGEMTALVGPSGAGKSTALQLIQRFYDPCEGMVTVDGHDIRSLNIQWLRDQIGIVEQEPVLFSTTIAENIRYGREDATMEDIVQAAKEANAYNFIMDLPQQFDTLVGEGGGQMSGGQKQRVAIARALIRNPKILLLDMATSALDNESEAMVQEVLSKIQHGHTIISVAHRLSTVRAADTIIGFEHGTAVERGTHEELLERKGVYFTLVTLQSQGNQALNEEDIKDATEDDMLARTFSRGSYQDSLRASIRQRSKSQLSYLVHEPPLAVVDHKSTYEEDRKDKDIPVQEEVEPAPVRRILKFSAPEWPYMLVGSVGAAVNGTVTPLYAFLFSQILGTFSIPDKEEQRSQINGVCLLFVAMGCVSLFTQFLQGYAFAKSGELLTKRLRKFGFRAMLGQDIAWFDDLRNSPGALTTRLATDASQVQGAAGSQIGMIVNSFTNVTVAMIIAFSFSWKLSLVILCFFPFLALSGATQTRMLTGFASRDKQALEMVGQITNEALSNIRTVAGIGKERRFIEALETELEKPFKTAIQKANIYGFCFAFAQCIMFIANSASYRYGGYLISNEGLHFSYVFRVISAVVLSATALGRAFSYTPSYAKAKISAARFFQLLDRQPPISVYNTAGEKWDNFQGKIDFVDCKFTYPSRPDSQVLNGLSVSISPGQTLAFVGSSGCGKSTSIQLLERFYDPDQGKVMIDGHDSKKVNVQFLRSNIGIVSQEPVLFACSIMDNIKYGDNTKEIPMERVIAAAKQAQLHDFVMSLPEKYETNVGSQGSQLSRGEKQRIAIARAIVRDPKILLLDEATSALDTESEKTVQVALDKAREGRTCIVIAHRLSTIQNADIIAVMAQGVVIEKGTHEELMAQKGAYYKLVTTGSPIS
Experiment: BSEP (Bile Salt Export Pump) assay, taurocholic acid uptake by BSEP vesicles, LC/MS/MS
Format: in vitro ADME
Details: read-out: BSEP
Source text: In this experiment, we performed a preliminary study on the inhibition of the uptake of the substrate taurocholic acid (TCA) by the BSEP bile salt transporter by LC/MS/MS. The BSEP protein microvesicles with reverse uptake ability were obtained by transfecting Hi5 cells with the BSEP gene, which is capable of TCA uptake and uptake of taurocholic acid. […]

The examples below pair each entry with its known result.
structureAsSmiles: CC(C)(C)OC(=O)Nc1cc(COc2ccc3c(c2)OC[C@H]3CC(=O)O)c2c(c1)OCO2
IC50: > 25 µM
//
structureAsSmiles: O=C(O)C[C@@H]1COc2cc(OCc3cccc4c3OC(F)(F)O4)ccc21
IC50: > 25 µM

// switching to the query molecule
Task: Query: IC50; subject: O=C(O)C[C@@H]1COc2cc(OCc3cc(Cl)cc4c3OCO4)ccc21
Output: > 25 µM

* * *

target: GPR40 (Homo sapiens); construct: expressed in transfected cells; host or cells: CHO-K1; experiment: GPR40 agonist activity, FLIPR calcium assay in CHO-K1/GPR40 cells; type: cell-based; settings: Table 4; read-out: GPR40 Activity (hEC50)
assayReadout: EC50
Quick note: number first, unit second.

The examples below pair each entry with its known result.
structureAsSmiles: O=C(O)C[C@@H]1COc2cc(OCc3cccc4c3OC(F)(F)O4)ccc21
EC50: 7.9 nM

structureAsSmiles: O=C(O)C[C@@H]1COc2cc(OCc3cc(Cl)cc4c3OCO4)ccc21
EC50: 9.2 nM

// switching to the query molecule
Task: Query: EC50; subject: CC(C)(C)OC(=O)Nc1cc(COc2ccc3c(c2)OC[C@H]3CC(=O)O)c2c(c1)OCO2
Output: 6.8 nM

* * *

molecular target: GPR40 (Homo sapiens, UniProt O14842); construct: expressed in transfected cells; host or cells: CHO-K1; experiment: GPR40 agonist activity, FLIPR calcium assay in CHO-K1/GPR40 cells; format: cell-based; details: GPR40 agonist activity range (EC50), CHO-K1/GPR40 cells; read-out: GPR40 activity
Sequence (O14842 whole entry): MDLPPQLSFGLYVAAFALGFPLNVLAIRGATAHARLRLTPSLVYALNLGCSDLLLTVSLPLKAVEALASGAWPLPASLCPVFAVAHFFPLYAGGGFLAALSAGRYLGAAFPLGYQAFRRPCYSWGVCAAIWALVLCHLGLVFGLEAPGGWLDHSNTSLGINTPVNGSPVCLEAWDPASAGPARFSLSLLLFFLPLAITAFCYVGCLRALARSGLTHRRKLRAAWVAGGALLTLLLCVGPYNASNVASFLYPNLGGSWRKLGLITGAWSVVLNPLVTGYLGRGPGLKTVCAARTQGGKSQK
pEC50: −log10 of the molar value.
assayReadout: pEC50

molecule: O=C(O)CC1COc2cc(OCc3cc(Br)cc4c3OCCO4)ccc21 (stereo not drawn)
targetOrSystem: GPR40 (Homo sapiens, UniProt O14842)
pEC50: < 7.00
//
molecule: O=C(O)CC1COc2cc(OCc3cc(Cl)cc4c3OC(F)(F)O4)ccc21 (stereo not drawn)
targetOrSystem: GPR40 (Homo sapiens, UniProt O14842)
pEC50: 7.00 to 8.00

Task: Query: pEC50; subject: CC(C)(C)OC(=O)Nc1cc(COc2ccc3c(c2)CCC3CC(=O)O)c2c(c1)OC(F)(F)O2 (stereo not drawn)
Output: 7.00 to 8.00

* * *

target: GPR40 (Homo sapiens, UniProt O14842); construct: expressed in transfected cells; host or cells: CHO-K1; test: GPR40 agonist activity, FLIPR calcium assay in CHO-K1/GPR40 cells; type: cell-based; details: GPR40 agonist activity range (EC50), CHO-K1/GPR40 cells; read-out: GPR40 activity
assayReadout: EC50

compound: Nc1cc(COc2ccc3c(c2)OC[C@H]3CC(=O)O)c2c(c1)OCO2 [IIb-44]
assayValue: > 100 nM

compound: O=C(O)C[C@@H]1COc2cc(OCc3cc(C(F)(F)F)cc4c3OCO4)ccc21 [IIb-53]
assayValue: 10 to 100 nM

compound: NC(C(=O)O)C1COc2cc(OCc3cccc4c3OC(F)(F)O4)ccc21 (stereo not shown) [IIb-31]
assayValue: > 100 nM

compound: O=C(O)CC1COc2cc(OCc3cccc4c3OCO4)ccc21 (stereo not shown) [IIb-01]
assayValue: > 100 nM

compound: O=C(O)CC1CCc2cc(OCc3cccc4c3OC(F)(F)O4)ccc21 (stereo not shown) [IIb-61]
assayValue: 10 to 100 nM

compound: O=C(O)C[C@@H]1COc2cc(OCc3cc(F)cc4c3OCO4)ccc21 [IIb-07]
assayValue: 10 to 100 nM

compound: CC1(C)Oc2cc(Br)cc(COc3ccc4c(c3)OCC4CC(=O)O)c2O1 (stereo not shown) [IIb-22]
assayValue: > 100 nM

compound: O=C(O)C(F)C1COc2cc(OCc3cc(Cl)cc4c3OCO4)ccc21 (stereo not shown) [IIb-58]
assayValue: 10 to 100 nM

compound: O=C(O)CC1COc2cc(OCc3ccc(F)c4c3OCO4)ccc21 (stereo not shown) [IIb-12]
assayValue: > 100 nM

compound: O=C(O)C[C@@H]1COc2cc(OCc3cc(OC(F)(F)F)cc4c3OCO4)ccc21 [IIb-52]
assayValue: > 100 nM

// switching to the query compound
Task: Query: EC50; subject: O=C(O)CC1COc2cc(OCc3cccc4c3OC(F)(F)O4)c(F)cc21 (stereo not shown) [IIb-29]
Output: > 100 nM

The measurements presented in this section are drawn from patent US20230339919A1.
